Origin of the recorded values: patent US6413974B1

Test system: A549
Assay: In vitro tumor cell proliferation, A549
Assay type: cell-based, human
Details: Homo sapiens, A549, values without *; read-out: In vitro Tumor Cell Proliferation (IC50, μM) Lung A549
Where a name gives a salt, the structure may show the parent alone.
The entries below are paired with their reported log10 IC50.
ATTRIBUTE_MEASURED: log10 IC50 (log10 of the value in µM)

[[record]]
compound = "N[C@H]1CC[C@H](Nc2nc(NCC3CCCCC3)c3ncn(C4CCCC4)c3n2)CC1 [Example 22, dihydrochloride]"
measured_target = "A549"
measured = 0.90

[[record]]
compound = "CCCCNc1nc(N[C@H]2CC[C@H](N)CC2)nc2c1ncn2C1CCCC1 [Example 3, dihydrochloride]"
measured_target = "A549"
measured = -0.22

[[record]]
compound = "N[C@H]1CC[C@H](Nc2nc(NCCCn3ccnc3)c3ncn(C4CCCC4)c3n2)CC1 [Example 46, dihydrochloride]"
measured_target = "A549"
measured = 0.78

[[record]]
compound = "N[C@H]1CC[C@H](Nc2nc(NCc3ccc(Cl)cc3F)c3ncn(C4CCCC4)c3n2)CC1 [Example 40, dihydrochloride]"
measured_target = "A549"
measured = 0.30

[[record]]
compound = "N[C@H]1CC[C@H](Nc2nc(NCc3ccc(Cl)cc3)c3ncn(C4CCCC4)c3n2)CC1 [Example 27, dihydrochloride]"
measured_target = "A549"
measured = 0.92

[[record]]
compound = "N[C@H]1CC[C@H](Nc2nc(NCCc3ccccc3)c3ncn(C4CCCC4)c3n2)CC1 [Example 43, dihydrochloride]"
measured_target = "A549"
measured = 0.04

[[record]]
compound = "C[C@@H](Nc1nc(NC2CCC(N)CC2)nc2c1ncn2C1CCCC1)c1ccccc1 (some centres unmarked) [Example 16, dihydrochloride]"
measured_target = "A549"
measured = 0.81

[[record]]
compound = "CC(C)CCNc1nc(N[C@H]2CC[C@H](N)CC2)nc2c1ncn2C1CCCC1 [Example 36, dihydrochloride]"
measured_target = "A549"
measured = -0.10

[[record]]
compound = "N[C@H]1CC[C@H](Nc2nc(NCc3cccc(Cl)c3)c3ncn(C4CCCC4)c3n2)CC1 [Example 29, dihydrochloride]"
measured_target = "A549"
measured = -0.04

[[record]]
compound = "N[C@H]1CC[C@H](Nc2nc(NCc3ccccc3)c3ncn(C4CCCC4)c3n2)CC1 [Example 47, dihydrochloride]"
measured_target = "A549"
measured = 0.23

[[record]]
compound = "N[C@H]1CC[C@H](Nc2nc(NCC3CC3)c3ncn(C4CCCC4)c3n2)CC1 [Example 34, dihydrochloride]"
measured_target = "A549"
measured = 0.28

[[record]]
compound = "CC(C)n1cnc2c(NCc3ccccc3)nc(N[C@H]3CC[C@H](N)CC3)nc21 [Example 45, trihydrochloride]"
measured_target = "A549"
measured = 0.30

[[record]]
compound = "N[C@H]1CC[C@H](Nc2nc(NCC3CCCCO3)c3ncn(C4CCCC4)c3n2)CC1 (relative stereo) [Example 30, dihydrochloride]"
measured_target = "A549"
measured = 0.40

[[record]]
compound = "N[C@H]1CC[C@H](Nc2nc(NCc3ccccc3F)c3ncn(C4CCCC4)c3n2)CC1 [Example 42, dihydrochloride]"
measured_target = "A549"
measured = 0.85


---

Tested on: HT-29
Experiment: In vitro tumor cell proliferation, HT-29
Format: cell-based, human
Details: values without *; dihydrochloride; read-out: In vitro Tumor Cell Proliferation (IC50, μM) Colon HT-29 (converted)
Structures can show the parent of a compound that is named as a salt.
ATTRIBUTE_MEASURED: IC50 (µM)

[[record]]
compound = "N[C@H]1CC[C@H](Nc2nc(NCCCn3ccnc3)c3ncn(C4CCCC4)c3n2)CC1 [Example 46, dihydrochloride]"
attribute_measured = "IC50"
unit_info = "µM"
measured = 9.7

[[record]]
compound = "N[C@H]1CC[C@H](Nc2nc(NCC3CC3)c3ncn(C4CCCC4)c3n2)CC1 [Example 34, dihydrochloride]"
attribute_measured = "IC50"
unit_info = "µM"
measured = 2.6

[[record]]
compound = "N[C@H]1CC[C@H](Nc2nc(NCc3cccc(Cl)c3)c3ncn(C4CCCC4)c3n2)CC1 [Example 29, dihydrochloride]"
attribute_measured = "IC50"
unit_info = "µM"
measured = 1.5

[[record]]
compound = "N[C@H]1CC[C@H](Nc2nc(NCc3ccccc3)c3ncn(C4CCCC4)c3n2)CC1 [Example 47, dihydrochloride]"
attribute_measured = "IC50"
unit_info = "µM"
measured = 2.7

[[record]]
compound = "N[C@H]1CC[C@H](Nc2nc(NCCc3ccccc3)c3ncn(C4CCCC4)c3n2)CC1 [Example 43, dihydrochloride]"
attribute_measured = "IC50"
unit_info = "µM"
measured = 2.8

[[record]]
compound = "N[C@H]1CC[C@H](Nc2nc(NCC3CCCCO3)c3ncn(C4CCCC4)c3n2)CC1 (relative stereo) [Example 30, dihydrochloride]"
attribute_measured = "IC50"
unit_info = "µM"
measured = 7.9

[[record]]
compound = "Cc1cccc(CNc2nc(N[C@H]3CC[C@H](N)CC3)nc3c2ncn3C2CCCC2)c1 [Example 11, dihydrochloride]"
attribute_measured = "IC50"
unit_info = "µM"
measured = 11


---

System: A549
Assay: In vitro tumor cell proliferation, A549
Format: cell-based, human
Conditions: Homo sapiens, A549, values without *; read-out: In vitro Tumor Cell Proliferation (IC50, μM) Lung A549
Where a name gives a salt, the structure may show the parent alone.
Measured log10(IC50) of individual entries
ATTRIBUTE_MEASURED: log10(IC50) (log10 of the value in µM)

[[record]]
compound = "N[C@H]1CC[C@H](Nc2nc(NCCCc3ccccc3)c3ncn(C4CCCC4)c3n2)CC1 [Example 24, dihydrochloride]"
measured_target = "A549"
attribute_measured = "log10(IC50)"
measured = -0.82

[[record]]
compound = "N[C@H]1CC[C@H](Nc2nc(NCc3ccc(Cl)cc3Cl)c3ncn(C4CCCC4)c3n2)CC1 [Example 48, dihydrochloride]"
measured_target = "A549"
attribute_measured = "log10(IC50)"
measured = 0.34

[[record]]
compound = "N[C@H]1CC[C@H](Nc2nc(NCc3cccc(I)c3)c3ncn(C4CCCC4)c3n2)CC1 [Example 1, dihydrochloride]"
measured_target = "A549"
attribute_measured = "log10(IC50)"
measured = 0.04

[[record]]
compound = "CN1CC[C@H](c2c(O)cc(O)c3c(=O)cc(-c4ccccc4Cl)oc23)[C@H](O)C1 [Flavoipiridol, reference compound]"
measured_target = "A549"
attribute_measured = "log10(IC50)"
measured = -1.10

[[record]]
compound = "N[C@H]1CC[C@H](Nc2nc(NCc3ccc(Cl)c(Cl)c3)c3ncn(C4CCCC4)c3n2)CC1 [Example 10, dihydrochloride]"
measured_target = "A549"
attribute_measured = "log10(IC50)"
measured = 0.23


---

Molecular target: cdk2/cyclin E (Homo sapiens)
Test: Cyclin-Dependent Kinase 2 Assay (cdk-2 inhibition)
Details: GST-Rb substrate, 30 min at 30° C.
Experimental: The transformed bacteria were grown overnight to saturation, then diluted in YT broth and incubated at 37° C. for 2 h. The protein was induced by incubation with 0.1 mM isopropylthioglycoside for 3 h. […] The beads were washed with kinase buffer and then quantitation of Coomassie blue-stained proteins separated by SDS-PAGE was performed using a protein standard of known concentration. […]
Where a name gives a salt, the structure may show the parent alone.
Classify: t when IC50 is strictly less than 200 nM; f when IC50 is not.

[[record]]
compound = "N[C@H]1CC[C@H](Nc2nc(NCCc3ccccn3)c3ncn(C4CCCC4)c3n2)CC1 [Example 12, dihydrochloride]"
assigned_category = "f"

[[record]]
compound = "CC(C)n1cnc2c(NCc3ccccc3)nc(N[C@H]3CC[C@H](N)CC3)nc21 [Example 45, trihydrochloride]"
assigned_category = "t"

[[record]]
compound = "C[C@H](Nc1nc(N[C@H]2CC[C@H](N)CC2)nc2c1ncn2C1CCCC1)c1ccccc1 [Example 6, dihydrochloride]"
assigned_category = "f"

[[record]]
compound = "CCC(C)(CO)Nc1nc(N[C@H]2CC[C@H](N)CC2)nc2c1ncn2C1CCCC1 (stereo partly drawn) [Example 23, dihydrochloride]"
assigned_category = "f"

[[record]]
compound = "N[C@H]1CC[C@H](Nc2nc(NCCc3c[nH]c4ccccc34)c3ncn(C4CCCC4)c3n2)CC1 [Example 2, dihydrochloride]"
assigned_category = "t"

[[record]]
compound = "N[C@H]1CC[C@H](Nc2nc(NCCCCCO)c3ncn(C4CCCC4)c3n2)CC1 [Example 25, dihydrochloride]"
assigned_category = "t"


---

Tested on: HCT-15
Assay: In vitro tumor cell proliferation, HCT-15
Format: cell-based, human
Details: Homo sapiens, HCT-15, values without *; read-out: In vitro Tumor Cell Proliferation (IC50, μM) Colon HCT-15
Counter-ions that a name gives are not always drawn.
ATTRIBUTE_MEASURED: IC50 (µM)

[[record]]
compound = "N[C@H]1CC[C@H](Nc2nc(NCC3CCCCC3)c3ncn(C4CCCC4)c3n2)CC1 [Example 22, dihydrochloride]"
measured = 17

[[record]]
compound = "N[C@H]1CC[C@H](Nc2nc(NCc3ccc(F)cc3)c3ncn(C4CCCC4)c3n2)CC1 [Example 50, dihydrochloride]"
measured = 7.4

[[record]]
compound = "N[C@H]1CC[C@H](Nc2nc(NCC3CCCCO3)c3ncn(C4CCCC4)c3n2)CC1 (relative stereo) [Example 30, dihydrochloride]"
measured = 21

[[record]]
compound = "N[C@H]1CC[C@H](Nc2nc(NCc3cccc(I)c3)c3ncn(C4CCCC4)c3n2)CC1 [Example 1, dihydrochloride]"
measured = 2.2

[[record]]
compound = "N[C@H]1CC[C@H](Nc2nc(NCc3ccc(Cl)cc3F)c3ncn(C4CCCC4)c3n2)CC1 [Example 40, dihydrochloride]"
measured = 4.2

[[record]]
compound = "Cc1cccc(CNc2nc(N[C@H]3CC[C@H](N)CC3)nc3c2ncn3C2CCCC2)c1 [Example 11, dihydrochloride]"
measured = 11

[[record]]
compound = "CN1CC[C@H](c2c(O)cc(O)c3c(=O)cc(-c4ccccc4Cl)oc23)[C@H](O)C1 [Flavoipiridol, reference compound]"
measured = 0.1

[[record]]
compound = "N[C@H]1CC[C@H](Nc2nc(NCCc3ccccc3)c3ncn(C4CCCC4)c3n2)CC1 [Example 43, dihydrochloride]"
measured = 3.4

[[record]]
compound = "CCCCNc1nc(N[C@H]2CC[C@H](N)CC2)nc2c1ncn2C1CCCC1 [Example 3, dihydrochloride]"
measured = 3.9

